target: Bcl-2-like protein 10 (Homo sapiens); assay: Bcl-B inhibitors displacing Bim peptide, SAR follow-up, biochemical, fluorescence polarization, GST-Bcl-B, FITC-Bim (AID 588575)
Active and inactive are the calls of the source.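 How the source made its calls: active means IC50 at or below 20 µM; inactive means the rest.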
Select the correct class. Options are yes (active), no (inactive) and nothing else.

Hello, I am checking results. What call was entered for Cc1ccc2c(c1)-c1c(c(=O)n(Cc3ccc(Cl)cc3)c3nncn13)C1(CCCCC1)C2 ? no

GET /call?item= O=c1c2c(nc3n1CCS3)-c1ccccc1CC21CCCCC1 returns the recorded outcome of this test. no

---
I would be grateful if you could indicate the recorded call for O=c1[nH]c(CN2CCCC2)nc2c1C1(CCCC1)Cc1ccccc1-2 . no

In this assay, the call recorded for Cc1ccc2c(c1)-c1c(c(=O)n(Cc3ccccc3)c3nnnn13)C(C)(C)C2 was what? yes

What outcome does the record of this test show for COc1ccc2c(c1)-c1c(c(=O)n(Cc3ccccc3)c3nnnn13)C1(CCCC1)C2 ? no

I would be grateful if you could indicate the recorded call for O=c1c2c(n3cnnc3n1Cc1ccc(Cl)cc1)-c1ccccc1CC21CCCC1 . yes

Record lookup: outcome of this test for COc1ccc2c(c1)-c1c(c(=O)n(Cc3ccc(Cl)cc3)c3nnnn13)C(C)(C)C2 ? no

// return assay outcome for COc1ccc(Cn2c(=O)c3c(n4nnnc24)-c2cc(C)ccc2CC3(C)C)cc1 yes

Fill in: this test's call for Cn1c(=O)c2c(n3cnnc13)-c1ccccc1CC21CCCC1 is ___ no

Assay result, entry C=C(C)Cn1c(=O)c2c(n3nnnc13)-c1ccccc1CC21CCCC1 — outcome? no

###

biological target: Bcl-2-like protein 10 (Homo sapiens); test: Bcl-B inhibitors displacing Bim peptide, SAR follow-up, biochemical, fluorescence polarization, GST-Bcl-B, FITC-Bim (AID 588575)
Active and inactive are the calls of the source.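 The calls were made as follows: active = IC50 at or below 20 µM; inactive = the rest.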
Tick one outcome: 1.0 for active, 0.0 for inactive

Here's what some known entries look like.
Per the records of this test, what outcome belongs to Cc1ccc2c(c1)-c1c(c(=O)n(Cc3ccc(F)cc3)c3nncn13)C1(CCCCC1)C2 ? 1.0

For Cc1ccc2c(c1)-c1c(c(=O)n(Cc3ccc(F)cc3)c3nnnn13)C1(CCCCC1)C2 , which call appears in the assay record? 1.0

GET /call?item= Cc1ccc2c(c1)-c1c(c(=O)n(Cc3ccccc3)c3nncn13)C1(CCCCC1)C2 returns the recorded outcome of this test. 1.0

Each molecule tested received a call. Report the one for CC1(C)Cc2ccccc2-c2c1c(=O)n(Cc1ccccc1)c1nncn21 . 0.0

State the result this test recorded for O=c1c2c(nc3[nH]ncn13)-c1ccccc1CC21CCCC1 . 0.0

Please indicate how the test categorized CC1CC(=O)C2=C(C1)Nc1ncnn1C2c1cccnc1 (stereo unspecified) . 0.0

# lookup: test call for O=c1c2c(n3nnnc3n1Cc1ccc(Cl)cc1)-c1ccccc1CC21CCCC1 1.0

Recorded test call requested for COc1ccc(Cn2c(=O)c3c(n4cnnc24)-c2cc(C)ccc2CC3(C)C)cc1 1.0

Others:
Would you mind telling me which call this test gave O=C1CC(c2ccc(F)cc2)CC2=C1C(c1cccc(Cl)c1)n1ncnc1N2 (stereo unspecified) ? 0.0

Which outcome did this test record for the molecule O=c1c2c(n3nnnc3n1Cc1ccc(F)cc1)-c1ccccc1CC21CCCC1 ? 1.0

Tell me the assay call for O=c1c2c(n3nnnc3n1Cc1ccccc1)-c1ccccc1CC21CCCCC1 please. 1.0

What classification did Cc1ccc2c(c1)-c1c(c(=O)n(Cc3ccc(Cl)cc3)c3nnnn13)C1(CCCCC1)C2 end up with in this test? 0.0

Entry O=c1[nH]c(NCCCO)nc2c1C1(CCCCC1)Cc1ccccc1-2 : call = ? 0.0

State the result this test recorded for O=c1c2cnc3ncnn3c2ccn1CCc1cnc[nH]1 . 0.0

Record lookup: outcome of this test for CC1(C)CC(n2c(=S)[nH]c3c(c2=O)C2(CCCC2)Cc2ccccc2-3)CCO1 (stereo unspecified) ? 0.0

For COc1ccc2c(c1)-c1c(c(=O)n(Cc3ccccc3)c3nnnn13)C(C)(C)C2 , what call appears in the results of this test? 1.0
